assay: Human HepG2 cell viability assay in 384 well format; type: toxicity, cell-based; set-up: dose 125 nL, time 70.5 hour; concentration not given beside the values; settings: HepG2 cells, read-out: Inhibition
Entries annotated with measured cytotoxicity at 70.5 h
# output: bare number, implied unit %

Please review the following examples before continuing.
| compound | cytotoxicity at 70.5 h [%] |
| --- | --- |
| CC(=O)c1cnc(NCCc2csc(-c3cnccn3)n2)nc1C | -10.8 |
| CC(=O)N1CCCC(C(=O)N2CCC(=Cc3cccc(F)c3)CC2)C1 (stereo unspecified) | -9.9 |
| Nc1nnc(CCCNC(=O)c2ccc(C3CCCNC3)cc2)s1 (stereo unspecified) | 8.02 |
| Cc1cc(F)ccc1CNCCn1cccn1 | -1.75 |
| CCN(CC)C(=O)COc1nc(C(C)C)no1 | 18.3 |

// query cytotoxicity at 70.5 h value for entry "Cc1ccc(OC2(C(=O)O)CCN(C(=O)c3cccc(F)c3)CC2)cn1"
2.13

Also O=C1CC(c2ccncc2)c2c(c(C(=O)O)cn2-c2ccccc2)N1 (stereo unspecified) , if possible.
-8.17

Next record, please: COCC1CC2(CCN(Cc3ccoc3)CC2)CN1Cc1ccccn1 (stereo unspecified)
16.1

What about CCN(CCCc1ccccc1)CC1(C)Cc2c(N)nc(N)nc2O1 (stereo unspecified) ?
12.9

How about CC(C(=O)O)n1nc(C(F)(F)F)c(Br)c1C1CC1 (stereo unspecified) ?
-14

Then "O=c1c2sccc2nc2n1CCN(Cc1cc(F)ccc1F)CC2" ?
-7.47

Also "CC1=N[C@@]2(CC[C@@H]3CN(C(=O)NC(C)C)C[C@@H]32)C(=O)N1CC(C)C" , if possible.
-3.41

What would you report for "O=C(C1CC1)N1CCCN(c2ncnc3c2CCNCC3)CC1" ?
-6.41

Param item: "CC(C)(C)c1ncc2c(n1)CN(C(=O)c1ccc(C#N)nc1)C2"
11.4

Param item: c1cncc(COC2COC3(CCN(c4cnccn4)CC3)C2)c1 (stereo unspecified)
15.1

Now try "Cn1cc(CN2CC[C@H]3O[C@H](C(=O)NC4CC4)CC[C@H]32)c2ccccc21" .
-3.36

Note, next up: "CN1CC2(CCN(c3ncnc4c3CCNC4)CC2)OC1=O"
-9.3

====

Quick list: cytotoxicity at 70.5 h per entry.
experiment: Human HepG2 cell viability assay in 384 well format; type: toxicity, cell-based; design: dose 125 nL, time 70.5 hour; concentration not given beside the values; details: HepG2 cells, read-out: Inhibition
Return type: number; implicit unit %.

Some molecules with recorded cytotoxicity at 70.5 h:
| molecule | unit.symbol | cytotoxicity at 70.5 h |
| --- | --- | --- |
| CCC1CN(C(=O)c2ccc(=O)[nH]c2)CCC(=O)N1Cc1ccccc1 (stereo not drawn) | % | -2.4 |
| O=S(=O)(NCCc1ccccc1F)N1CCOCC1 | % | -3.51 |
| Cc1c(NC(=O)NCC(C)N2CCOCC2)cccc1OC(F)F (stereo not drawn) | % | -0.748 |

I am curious: what cytotoxicity at 70.5 h value has been reported for Cc1cc(CN2CCC(CNC(=O)c3ccc4[nH]cnc4c3)C2)[nH]n1 (stereo not drawn) ?
-6.71

Now the molecule "COc1ccc(C(=O)NC[C@H]2COCc3nc4cc(C)ccc4n32)cc1"
-4.37

Again, but for "Cc1nc([C@@H]2C[C@@H]3CCN(C(=O)c4ccnnc4)C[C@H]3O2)sc1C"
5.38

Proceed to CN(C)C(=O)c1cn[nH]c1C1CCCN1Cc1c[nH]cn1 (stereo not drawn)
0.232

Next molecule up: "CCOC(=O)[C@H]1[C@@H](O)C(=O)N(C)C12CCN(C(=O)CC(C)C)CC2"
-6.09

Try this molecule too: "Cc1ccc(CNC(=O)CN(CCC(N)=O)c2ccc(F)cc2)cc1"
-3.51

Try "CC(C)(C)c1cc(NC(=O)CN(Cc2cccs2)Cc2cccs2)on1" next.
-8.34

Next entry: "CCCn1cc(C(=O)NCCS(N)(=O)=O)c2ccccc21"
15.9

# iterate: CC(C)c1cc(C(=O)N2CCc3nc(C4CCCN4)ncc3C2)cs1 (stereo not drawn)
0.261

Can you handle O=C(NCCCn1cccn1)C1COCC(=O)N1Cc1ccccc1 (stereo not drawn) next?
-0.531

// same read-out, input: "O=C(NCc1cccnc1)[C@@H]1C[C@H]2[C@H](CCN2c2ncc(F)cn2)O1"
-4.83

Another molecule to check: "c1coc(-c2noc(CN3CCc4c(ncn4C4CC4)C3)n2)c1"
1.12

Thanks! And OCCc1cc(C2CCCN2c2ncccn2)n[nH]1 (stereo not drawn) ?
-2.35

Please answer likewise for "Cc1cc(C(=O)NCc2cccnc2N2CCc3ccccc3C2)[nH]n1"
-3.47
